B1: EPB41L3 (parent)
chain: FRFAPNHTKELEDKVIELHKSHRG

# Variants of: B1
# test summary: protein stability index of a GFP-peptide fusion (GPS, HEK-293T) (PSI 1-6); higher = more stable;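 also: lentivirally expressed fusions sorted by FACS into six bins by GFP to DsRed ratio, PSI derived from sequencing read proportions per bin multiplied by bin number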
# condition notes: c terminus: a fixed tail appended
observed property: protein stability index
Number only, no unit.

Guide cases for protein stability index, answers given:
| variant label | protein stability index |
| --- | --- |
| I16L | 2.01 |
| T8D | 2.01 |
| H19C | 2.03 |
| H19P | 2.72 |

The value of protein stability index measured for the variant `K14P` turned out to be 1.86

The value of protein stability index measured for the variant `E12H` turned out to be 2.34

The value of protein stability index measured for the variant `R2C` turned out to be 3.36

The value of protein stability index measured for the variant `H22M` turned out to be 1.55

The value of protein stability index measured for the variant `V15Q` turned out to be 2.54
